B1: tRNA (parent)
chain: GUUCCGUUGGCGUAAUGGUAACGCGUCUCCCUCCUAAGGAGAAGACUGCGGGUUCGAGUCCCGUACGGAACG

Variants of: B1
Assay: yeast fitness relative to wild type (ratio to wild type); higher = fitter; tRNA-Arg(CCU), competitive growth, 37 C, YPD
This sample holds only a part of the variants without activity.
parameter measured: yeast fitness
Please give only the number in your answer, with no unit.

These solved cases illustrate the format of a correct answer.
GUUCCGUUGGCGUAAUGGUAACGCGUCUCCCUCCUACGGAGAUGACUGCGGGUUCGAGUCCCAUACGGAACG [A37C A43U G63A] :: 0.666
GUUCAGUUGGCGUAAUGGUAACGCGUCUCCCUCCUAAGGAGAAGACUGCGGGUUCGAGUCCCGUGCGGAACG [C5A A65G] :: 0.978
GUUCCGUUGGCGUAAUGGUAACGCGUCUCCCUCCUAAGGAGAAGACUGCGGGUACGAGUCCCGUACGGUACG [U54A A69U] :: 0.671
GUUCCGUUGGCGUAAUGGUAACGCGUCUCAUUCCUGAGGAGAAGACUGCGGGUUCGAGUCCCGUACGGAACG [C30A C31U A36G] :: 0.587
GUUCUGUUGGCGUAAUGGUAAUGCGUCUCCCUCCUAAGGAGAAGACUGCGGGUUCGUGUCCCGUACGGAACG [C5U C22U A57U] :: 0.574

Report yeast fitness, nothing else, for this variant: GUUCCGUUGGCGUAAUAGUAAAGCGUCUCCAUACUAAGGAGAAGACUGAGGGUUCGAGUCCCGUACGGAACG [G17A C22A C31A C33A C49A]
0.573

Report yeast fitness for GUUCCGUUGGCGUAAUGGUAACGCGUCUCCCUCCUAAGGGGAAGACUGCGGGUUCGAGUCCCGUAUGGAACG [A40G C66U]
0.792

Answer with the recorded yeast fitness of GUUCCGUUGGCGUAAUGGUUACGCGUCUCCCUCGUCAGGAGAAGACUGCGGGUUUGAGUCCCGUACGGAACG [A20U C34G A36C C55U] only.
0.528

Please report yeast fitness for the following variant: GUUCCGAUGGCGUAAUGGUAACGCGUCUCCCUCCUAAGGAGAAGACUGCGGGUUCGAGUCCCAUACGGAACG [U7A G63A]
0.668

Recall and state the measured yeast fitness for GUUCCGUUGGCGUAAUGGUAACGCGUCUCCCUCCUAAGGAGAAGACUGCGGGUUGGUGUCCUGUACGGAACG [C55G A57U C62U] .
0.544
